biological target: EGFR wildtype (WT) (Homo sapiens); assay: Biochemical EGFR kinase assay (Lance Ultra TR-FRET), wildtype; conditions: IC50 WT (nM) 100 μM ATP, 100 μM ATP
Sequence (P00533 25-1210): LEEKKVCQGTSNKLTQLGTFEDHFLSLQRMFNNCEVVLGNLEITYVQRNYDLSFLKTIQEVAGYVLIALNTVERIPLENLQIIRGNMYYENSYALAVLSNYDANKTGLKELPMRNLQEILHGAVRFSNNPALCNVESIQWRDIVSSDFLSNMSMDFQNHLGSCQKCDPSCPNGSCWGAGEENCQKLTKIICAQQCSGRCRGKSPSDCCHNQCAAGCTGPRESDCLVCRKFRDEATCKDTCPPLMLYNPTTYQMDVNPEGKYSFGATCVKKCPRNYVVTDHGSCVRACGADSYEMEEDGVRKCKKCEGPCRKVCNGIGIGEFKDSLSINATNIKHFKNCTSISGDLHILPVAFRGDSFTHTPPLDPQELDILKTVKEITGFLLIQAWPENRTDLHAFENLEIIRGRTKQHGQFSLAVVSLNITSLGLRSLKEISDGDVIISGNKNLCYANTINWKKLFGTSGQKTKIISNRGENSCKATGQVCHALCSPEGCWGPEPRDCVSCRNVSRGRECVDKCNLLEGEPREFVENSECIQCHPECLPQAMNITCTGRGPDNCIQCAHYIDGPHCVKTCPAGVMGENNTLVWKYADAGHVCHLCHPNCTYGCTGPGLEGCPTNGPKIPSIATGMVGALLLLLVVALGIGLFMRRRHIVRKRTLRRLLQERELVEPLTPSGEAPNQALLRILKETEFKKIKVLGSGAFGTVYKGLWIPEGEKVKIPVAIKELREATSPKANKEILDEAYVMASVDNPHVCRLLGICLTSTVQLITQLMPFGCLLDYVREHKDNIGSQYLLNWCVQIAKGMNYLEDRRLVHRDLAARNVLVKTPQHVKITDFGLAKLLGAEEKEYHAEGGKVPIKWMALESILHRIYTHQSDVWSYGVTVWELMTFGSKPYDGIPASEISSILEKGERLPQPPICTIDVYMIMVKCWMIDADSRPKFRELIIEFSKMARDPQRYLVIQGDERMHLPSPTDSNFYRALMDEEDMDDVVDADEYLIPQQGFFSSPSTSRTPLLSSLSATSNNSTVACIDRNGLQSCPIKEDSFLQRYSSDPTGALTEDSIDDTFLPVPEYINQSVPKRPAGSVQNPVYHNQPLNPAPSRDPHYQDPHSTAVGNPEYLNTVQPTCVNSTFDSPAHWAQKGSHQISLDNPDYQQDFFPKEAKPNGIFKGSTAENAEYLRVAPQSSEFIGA
observed.property: IC50

The cases that follow already have their IC50 on record.
CCS(=O)(=O)n1ccc(-c2nccc(Nc3cc(N[C@H]4CC[C@@](C)(O)CC4)c(-c4ccn(C(F)F)n4)cn3)n2)n1 [Example 309] :: > 10000 nM
O=S(=O)(C1CC1)n1cc(-c2nccc(Nc3cc(NC4CCCC(NCCF)C4)c(-c4ccn(C(F)F)n4)cn3)n2)cn1 (stereo not drawn) [Example 194] :: > 10000 nM

[Q] Provide value of IC50 for this record tested with EGFR wildtype (WT) (Homo sapiens): O=S(=O)(C1CC1)n1cc(-c2nccc(Nc3cc(NC4CC(O)C4)c(-c4ccn(C(F)F)n4)cn3)n2)cn1 (stereo not drawn) [Example 40]
[A] > 10000 nM
